The reported measurements were obtained from ChEMBL document CHEMBL5214900.

TEST DETAILS: Cytotoxicity against HEK293 cells assessed as cell viability at 3.125 ug/ml incubated for 24 hrs by CCK-8 assay relative to control
Assay type: toxicity, cell-based
TEST CONDITIONS: human, at 3.125 µg/mL, read-out: Activity
REPORTED METRIC: viability at 24 h, 3.125 ug/ml (%)
Respond numerically; units are % and should not be typed.

Read off the recorded viability at 24 h, 3.125 ug/ml for C=C[C@@](C)(/C=C/c1ccc(OCCCCN(CCCN(C)C)CCCN(C)C)cc1)CCC=C(C)C
94.1

---

Tested on: Acinetobacter baumannii
TEST DETAILS: Antibacterial activity against Acinetobacter baumannii R2889 assessed as inhibition of bacterial growth incubated for 24 hrs by CLSI based broth dilution method
Assay type: functional
REPORTED METRIC: MIC
Your answer should be a number followed by the unit of measure.

Examples with their reported MIC follow.
C=C[C@@](C)(/C=C/c1ccc(OCCCCN2CCN(CCCN(C)C)CC2)cc1)CCC=C(C)C; 6.25 µg/mL
C=C[C@@](C)(/C=C/c1ccc(OCCCCNCCN(CCN)CCN)cc1)CCC=C(C)C; 6.25 µg/mL
C=C[C@@](C)(/C=C/c1ccc(OCCCCN(CCCN(C)C)CCCN(C)C)cc1)CCC=C(C)C; 3.12 µg/mL
C=C[C@@](C)(/C=C/c1ccc(OCCCCN(C)CCCNC)cc1)CCC=C(C)C; 6.25 µg/mL

Specify MIC for C=C[C@@](C)(/C=C/c1ccc(OCCCCN(C)CCCN(C)CCCNC)cc1)CCC=C(C)C and stop.
3.12 µg/mL

---

This section presents compounds with their documented MIC values.
System: Klebsiella pneumoniae
TEST DETAILS: Antibacterial activity against Klebsiella pneumoniae ATCC 10031 assessed as inhibition of bacterial growth incubated for 24 hrs by CLSI based broth dilution method
Type: functional

C=C[C@@](C)(/C=C/c1ccc(O)cc1)CCC=C(C)C; 12.5 µg/mL

Could you please provide reported MIC for C=C[C@@](C)(/C=C/c1ccc(OCCCCN2CCN(CCCN(C)C)CC2)cc1)CCC=C(C)C ? Thanks!
1.56 µg/mL

Please look at this compound and report its MIC: C=C[C@@](C)(/C=C/c1ccc(OCCCCN(C)CCCNC)cc1)CCC=C(C)C
3.12 µg/mL

Could you please provide reported MIC for C=C[C@@](C)(/C=C/c1ccc(OCCCCNCCN(CCN)CCN)cc1)CCC=C(C)C ? Thanks!
1.56 µg/mL

Kindly indicate its recorded MIC. Item: C=C[C@@](C)(/C=C/c1ccc(OCCCCN2CCCNCCNCCCNCC2)cc1)CCC=C(C)C
1.56 µg/mL

# return recorded MIC for entry C=C[C@@](C)(/C=C/c1ccc(OCCCCN(CCCN(C)C)CCCN(C)C)cc1)CCC=C(C)C
3.12 µg/mL

Tell us which MIC value is on record for C=C[C@@](C)(/C=C/c1ccc(OCCCCN(C)CCCN(C)C)cc1)CCC=C(C)C
1.56 µg/mL

Give the reported MIC for this compound. C=C[C@@](C)(/C=C/c1ccc(OCCCCN(C)CCCN(C)CCCNC)cc1)CCC=C(C)C
1.56 µg/mL

---

System: Staphylococcus aureus
TEST DETAILS: Antibacterial activity against Staphylococcus aureus NCTC10442 assessed as fold increase in MIC incubated for 24 hrs in presence of 140 mM Na+ by CLSI based broth dilution method
Type: functional
Listed here are compounds together with their documented fold change (FC).

Example cases with answers are listed next.
C=C[C@@](C)(/C=C/c1ccc(OCCCCN2CCCNCCNCCCNCC2)cc1)CCC=C(C)C; <2
C=C[C@@](C)(/C=C/c1ccc(OCCCCN(C)CCCN(C)CCCNC)cc1)CCC=C(C)C; <2
C=C[C@@](C)(/C=C/c1ccc(OCCCCN(CCCN(C)C)CCCN(C)C)cc1)CCC=C(C)C; <2
C=C[C@@](C)(/C=C/c1ccc(OCCCCN2CCNCCNCCNCCNCC2)cc1)CCC=C(C)C; <2

Using the record for C=C[C@@](C)(/C=C/c1ccc(OCCCCNCCN(CCN)CCN)cc1)CCC=C(C)C , state its measured fold change (FC).
<2
